Listed compounds paired with reported pIC50
# Tested on: HT29
# test.summary: cells
# Assay type: cell-based
# experimental.context: Homo sapiens, HT-29, 2 h, read-out: 2 hr N2 HT29 IC50
pIC50: −log10 of the molar value. Structures can show the parent of a compound that is named as a salt.
quantity.name: pIC50

| compound | value.relation.sign | numeric.readout |
| --- | --- | --- |
| Nc1ccc(CC(c2ccsc2[N+](=O)[O-])S(=O)(=O)Oc2ccc(N(CCCl)CCCl)cc2)cn1 (stereo not shown) [TH-1255, trifluoroacetate] | = | 4.89 |
| O=[N+]([O-])c1sccc1C(Cc1ccc(N2CCOCC2)nc1)S(=O)(=O)Oc1ccc(N(CCCl)CCCl)cc1 (stereo not shown) | < | 3.52 |
| Cn1cncc1CC(c1ccsc1[N+](=O)[O-])S(=O)(=O)Oc1ccc(N(CCCl)CCCl)cc1 (stereo not shown) | = | 4.96 |
| O=[N+]([O-])c1sccc1C(CNS(=O)(=O)c1ccccc1)S(=O)(=O)Oc1ccc(N(CCCl)CCCl)cc1 (stereo not shown) | < | 3.52 |
| CCCN(CCCl)c1ccc(OS(=O)(=O)C(Cc2ncco2)c2ccsc2[N+](=O)[O-])cc1 (stereo not shown) | = | 4.05 |
| O=[N+]([O-])c1sccc1C(Cc1nccs1)S(=O)(=O)Oc1ccc(N(CCCl)CCCl)cc1 (stereo not shown) | < | 3.52 |
| O=[N+]([O-])c1sccc1C(Cc1ccc(O[C@H]2CCCC[C@@H]2O)nc1)S(=O)(=O)Oc1ccc(N(CCCl)CCCl)cc1 (stereo partly shown) | = | 3.55 |

meta.source: patent US8309554B2
